# System Tested: Urotensin-2 receptor (Homo sapiens)
# Sequence (Q9UKP6 whole entry): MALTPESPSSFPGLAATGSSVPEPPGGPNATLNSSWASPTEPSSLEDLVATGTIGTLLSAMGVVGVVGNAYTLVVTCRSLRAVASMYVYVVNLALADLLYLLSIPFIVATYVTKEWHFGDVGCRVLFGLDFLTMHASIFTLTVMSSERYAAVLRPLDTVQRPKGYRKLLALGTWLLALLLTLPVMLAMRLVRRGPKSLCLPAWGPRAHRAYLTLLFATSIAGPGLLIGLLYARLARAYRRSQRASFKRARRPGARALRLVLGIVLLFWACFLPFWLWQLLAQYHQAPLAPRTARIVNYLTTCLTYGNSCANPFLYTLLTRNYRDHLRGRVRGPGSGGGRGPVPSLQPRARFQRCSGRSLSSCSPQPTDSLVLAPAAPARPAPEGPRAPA
# Assay Details: Activity against human urotensin-2 receptor expressed in NIH3T3 cells
Value Type: log10 of EC50 (log10 of the value in nM)
Please be aware that the numbers have been log10-transformed from EC50 in nM.

Query block: Data request, read-out log10 of EC50, for CN(C)CCC(OC(=O)c1cc2ccccc2n1C)c1ccc(Cl)cc1 (stereo unspecified)
Result block: 3.14

Query block: Next molecule up: CN(C)CCC(OC(=O)Nc1ccc2ccccc2c1)c1ccc(Cl)cc1 (stereo unspecified)
Result block: 2.72

Query block: And for CN(C)CCC(OC(=O)c1cn(C)c2ccccc12)c1ccc(Cl)cc1 (stereo unspecified) ?
Result block: 3.18

Query block: Continue with CN(C)CC[C@H](NC(=O)c1ccc(-c2ccccc2)cc1)c1ccc(Cl)cc1
Result block: 1.51

Query block: Please answer likewise for CO[C@@H](C(=O)N[C@H](CCN(C)C)c1ccc(Cl)cc1)c1ccccc1
Result block: 3.70

Query block: Ok, now CN(C)CCC(NC(=O)Nc1ccc(C(C)(C)C)cc1)c1ccc(Cl)cc1 (stereo unspecified)
Result block: 2.44

The reported numbers originate from ChEMBL document CHEMBL1146083.
